protocol: in vivo
measurementParameters: male, Wistar Han, rat, in vivo; day 70; single IM Example 40A 60 mg/kg; read-out: Mean concentration of Example 40A
metricName: concentration at 70 day (ng/mL)
Kindly provide the numeric value in ng/mL only, without the unit symbol.

Fill in: concentration at 70 day of C#C[C@]1(COP(=O)(N[C@@H](Cc2cc(F)cc(F)c2)C(=O)OCCCCCCCCCCCCCCCCCC)Oc2ccccc2)O[C@@H](n2cnc3c(N)nc(F)nc32)C[C@@H]1O (single isomer, unassigned) [Example 40A] is ___
12.2

----------
protocol: in vivo
measurementParameters: male, Wistar Han, rat, in vivo; day 63; single IM 63 mg/kg; read-out: Mean concentration of Example 26A
metricName: concentration at 63 day (ng/mL)
Give just the number in ng/mL; leave the unit off.

Could you share which concentration at 63 day value was measured for C#C[C@]1(COP(=O)(N[C@@H](Cc2ccccc2)C(=O)OC(CCCCCCCCCCC)CCCCCCCCCCC)Oc2ccccc2)O[C@@H](n2cnc3c(N)nc(F)nc32)C[C@@H]1O (single isomer, unassigned) [Example 26A] ?
11.5

----------
protocol: in vivo
measurementParameters: male, Wistar Han, rat, in vivo; day 14; single IM Example 39A 58 mg/kg; read-out: Mean concentration of Example 39A
metricName: concentration at 14 day
Kindly format the answer as number then unit.

Reported concentration at 14 day for C#C[C@]1(COP(=O)(N[C@@H](Cc2cc(F)cc(F)c2)C(=O)OCCCCCCCCCCCCCCCC)Oc2ccccc2)O[C@@H](n2cnc3c(N)nc(F)nc32)C[C@@H]1O (single isomer, unassigned) [Example 39A] : what is it?
6.43 ng/mL

----------
protocol: in vivo
measurementParameters: male, Wistar Han, rat, in vivo; day 21; single IM 63 mg/kg; read-out: Mean concentration of Example 26A
Text: General Protocol for Prodrugs Rat PK Studies Conducted at ChemPartner, China A total of three naïve male Wistar Han rats, 200-250 g, were received from Beijing VR Laboratory Animal Co. LTD. Following an acclimation period, the animals were assigned to the study based on acceptable health as determined by a staff veterinarian and catheter patency. Fasting of the animals before or after dosing was not required. […]
metricName: concentration at 21 day

Fill in the blank: the reported concentration at 21 day of C#C[C@]1(COP(=O)(N[C@@H](Cc2ccccc2)C(=O)OC(CCCCCCCCCCC)CCCCCCCCCCC)Oc2ccccc2)O[C@@H](n2cnc3c(N)nc(F)nc32)C[C@@H]1O (single isomer, unassigned) [Example 26A] is ____.
22.9 ng/mL

----------
protocol: EFdA Rat PK Studies (subcutaneous and intramuscular groups), plasma concentration by LC-MS/MS
Format: in vivo, Wistar Han rats
measurementParameters: male, Wistar Han, rat, plasma, intramuscular, 20 mg/kg, 1 hr; IM 20 mg/kg; plasma; read-out: Assayed Concentrations of EFdA, Mean
Source text: Protocol for EFdA Rat PK Studies Conducted at Charles River Laboratories, NY. A total of seven naïve male Wistar Han rats, 200-250 g, were received from Charles River Laboratories, Kingston, N.Y. All animals were received from the supplier equipped with a surgically-implanted jugular vein catheter (JVC) for blood sample collection. Following an acclimation period, the animals were assigned to the study based on acceptable health as determined by a staff veterinarian and catheter patency. […]
metricName: concentration at 1 h (ng/mL)
The response must be a number in ng/mL with no trailing unit.

Name the reported concentration at 1 h value associated with the compound "C#C[C@]1(CO)O[C@@H](n2cnc3c(N)nc(F)nc32)C[C@@H]1O"
1330

----------
protocol: EFdA Rat PK Studies (subcutaneous and intramuscular groups), plasma concentration by LC-MS/MS
Type: in vivo, Wistar Han rats
measurementParameters: male, Wistar Han, rat, plasma, intramuscular, 20 mg/kg, 7 hr; IM 20 mg/kg; plasma; read-out: Assayed Concentrations of EFdA, Mean
metricName: concentration at 7 h
Answer format: value, then unit.

For C#C[C@]1(CO)O[C@@H](n2cnc3c(N)nc(F)nc32)C[C@@H]1O [EFdA] , what is its reported concentration at 7 h?
286 ng/mL

----------
protocol: in vivo
measurementParameters: male, Wistar Han, rat, in vivo; day 84; single IM Example 40A 60 mg/kg; read-out: Mean concentration of Example 40A
metricName: concentration at 84 day (ng/mL)
Respond numerically; units are ng/mL and should not be typed.

Requested read-out: concentration at 84 day. Entry: C#C[C@]1(COP(=O)(N[C@@H](Cc2cc(F)cc(F)c2)C(=O)OCCCCCCCCCCCCCCCCCC)Oc2ccccc2)O[C@@H](n2cnc3c(N)nc(F)nc32)C[C@@H]1O (single isomer, unassigned) [Example 40A]
10.3

----------
protocol: in vivo
measurementParameters: male, Wistar Han, rat, whole blood, intramuscular; day 14; single IM Example 11A 20 mg/kg equivalent of EFdA; read-out: Mean concentration of Example 11A
metricName: concentration at 14 day (ng/mL)
Give the number; ng/mL is assumed, so skip it.

Fill in the blank: the reported concentration at 14 day of C#C[C@]1(COP(=O)(N[C@@H](Cc2ccccc2)C(=O)OCCCCCCCCCCCC)OCC(=O)OCCCCCCCCCCCC)O[C@@H](n2cnc3c(N)nc(F)nc32)C[C@@H]1O (single isomer, unassigned) [Example 11A] is ____.
0.991

----------
protocol: in vivo
measurementParameters: male, Wistar Han, rat, in vivo; day 7; single IM 63 mg/kg; read-out: Mean concentration of Example 26A
metricName: concentration at 7 day (ng/mL)
The reply should contain only the number, in ng/mL.

Could you tell me which concentration at 7 day is on file for C#C[C@]1(COP(=O)(N[C@@H](Cc2ccccc2)C(=O)OC(CCCCCCCCCCC)CCCCCCCCCCC)Oc2ccccc2)O[C@@H](n2cnc3c(N)nc(F)nc32)C[C@@H]1O (single isomer, unassigned) [Example 26A] ?
37.6

----------
protocol: EFdA Rat PK Studies (subcutaneous and intramuscular groups), plasma concentration by LC-MS/MS
Assay type: in vivo, Wistar Han rats
measurementParameters: male, Wistar Han, rat, plasma, intramuscular, 20 mg/kg, 24 hr; IM 20 mg/kg; plasma; read-out: Assayed Concentrations of EFdA, Mean
Description: Protocol for EFdA Rat PK Studies Conducted at Charles River Laboratories, NY. A total of seven naïve male Wistar Han rats, 200-250 g, were received from Charles River Laboratories, Kingston, N.Y. All animals were received from the supplier equipped with a surgically-implanted jugular vein catheter (JVC) for blood sample collection. Following an acclimation period, the animals were assigned to the study based on acceptable health as determined by a staff veterinarian and catheter patency. […]
metricName: concentration at 24 h
Form entry: enter the amount, then its unit.

Request the reported concentration at 24 h associated with "C#C[C@]1(CO)O[C@@H](n2cnc3c(N)nc(F)nc32)C[C@@H]1O"
19.8 ng/mL

----------
protocol: in vivo
measurementParameters: male, Wistar Han, rat, in vivo; day 49; single IM Example 43A 60 mg/kg; read-out: Mean concentration of Example 43A
metricName: concentration at 49 day (ng/mL)
Could you give me the number in ng/mL? Just the number is fine.

Which concentration at 49 day value belongs to C#C[C@]1(COP(=O)(N[C@@H](Cc2ccccc2)C(=O)OCCCCCCCCCCCCCCCCCCCC)Oc2ccccc2)O[C@@H](n2cnc3c(N)nc(F)nc32)C[C@@H]1O (single isomer, unassigned) [Example 43A] ?
7.22

----------
protocol: in vivo
measurementParameters: male, Wistar Han, rat, in vivo; day 42; single IM Example 43A 60 mg/kg; read-out: Mean concentration of Example 43A
metricName: concentration at 42 day

Request the reported concentration at 42 day associated with C#C[C@]1(COP(=O)(N[C@@H](Cc2ccccc2)C(=O)OCCCCCCCCCCCCCCCCCCCC)Oc2ccccc2)O[C@@H](n2cnc3c(N)nc(F)nc32)C[C@@H]1O (single isomer, unassigned) [Example 43A]
0.0104 µg/mL

----------
protocol: in vivo
measurementParameters: male, Wistar Han, rat, in vivo; day 35; single IM Example 39A 58 mg/kg; read-out: Mean concentration of Example 39A
metricName: concentration at 35 day (ng/mL)
Answer with a number only, understood to be in ng/mL.

Dear colleague, I am looking for the recorded concentration at 35 day of the following compound: C#C[C@]1(COP(=O)(N[C@@H](Cc2cc(F)cc(F)c2)C(=O)OCCCCCCCCCCCCCCCC)Oc2ccccc2)O[C@@H](n2cnc3c(N)nc(F)nc32)C[C@@H]1O (single isomer, unassigned) [Example 39A]
3.56

----------
protocol: in vivo
measurementParameters: male, Wistar Han, rat, in vivo; day 77; single IM Example 39A 58 mg/kg; read-out: Mean concentration of Example 39A
metricName: concentration at 77 day
Please report the result as a number followed by the unit.

Data request, read-out concentration at 77 day, for C#C[C@]1(COP(=O)(N[C@@H](Cc2cc(F)cc(F)c2)C(=O)OCCCCCCCCCCCCCCCC)Oc2ccccc2)O[C@@H](n2cnc3c(N)nc(F)nc32)C[C@@H]1O (single isomer, unassigned) [Example 39A]
1.18 ng/mL

Numbers sourced from patent US20230151049A1.
